target: GRIP2_7, Q9C0E4; assay: holdup assay; design: key: below the threshold = too weak to quantify, mostly under pKd 3.1 to 4; settings: plain residues with an end cap or a label only (N-terminal biotin on a linker: ado-ado)
Sequence (Q9C0E4 934-1023): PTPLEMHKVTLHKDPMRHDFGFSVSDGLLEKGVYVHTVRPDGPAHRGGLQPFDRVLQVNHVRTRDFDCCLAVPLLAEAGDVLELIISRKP
PARAMETER MEASURED: pKd

Sample records with pKd:
{"columns": ["BINDER", "RESULT"],
 "data": [
  ["NNMAFETTHF [SLC5A12, Q1EHB4]", "below the threshold"],
  ["EPAKETTTNV [SLC2A3, P11169]", "below the threshold"],
  ["NKSEPFLTWL [WWTR1, Q9GZV5]", 4.21],
  ["SRPHTNETSL [MCC, P23508]", "below the threshold"],
  ["VYEVPVETKF [SLC26A3, P40879]", "below the threshold"],
  ["PEKVSNTTVV [IGSF5, Q9NSI5]", "below the threshold"],
  ["KKTPVSRSHL [SLC22A3, O75751]", "below the threshold"],
  ["RGKNRRQSIF [CDK18, Q07002]", "below the threshold"],
  ["PKSNSSKEYV [CLDN7, O95471]", "below the threshold"],
  ["FLVTEFNVML [DFNB31, Q9P202]", "below the threshold"]
]}

Field: pKd. Fill in for each record below.
1. PLPPEEESWV [GAS2L2, Q8NHY3]
2. STYCDYTIEI [FAM71C, Q8NEG0]
3. TKEIPNCTSV [SORCS3, Q9UPU3]

Key:
1: 4.09; 2: below the threshold; 3: below the threshold

Source: paper PMC9482650
